Assay Comment: folding enthalpy; higher = less favourable; fluorescence melt of hairpins on a sequencing array, two-state fit
Conditions Used: sodium 0.088 M
Property Label: folding enthalpy (kcal/mol)

{"columns": ["Residue Codes", "Value Unit", "Obs Value"],
 "data": [
  ["CGCGGATAGTTCCGCG ((((((....))))))", "kcal/mol", -35.4],
  ["GTAATTGGAAACAGTTAC ((((.((....)).))))", "kcal/mol", -21.2],
  ["GGAGAGCGAAAGCTATCC (((.(((....))).)))", "kcal/mol", -42.1],
  ["CTTCGGAAACGAAG (((((....)))))", "kcal/mol", -20.9],
  ["GTAGACGAAAGTCTTAC ((((((....))).)))", "kcal/mol", -14.6],
  ["GTGATCGGAAACGGTTAC ((.(.((....)).).))", "kcal/mol", -29.9],
  ["GCAAGGTCGAAAGACTGC (((..(((....))))))", "kcal/mol", -19.1],
  ["GCAAAGAAATTTGC (((((....)))))", "kcal/mol", -19.4],
  ["GATTCGGAAACGAATC ((((((....))))))", "kcal/mol", -32.2],
  ["GGTTGGCGAAAGCCGACC (((.(((....))).)))", "kcal/mol", -29.3],
  ["GGGGTTGGAAACAATCCC (((.(((....))).)))", "kcal/mol", -42.4],
  ["GATCGAGGATTCGATC ((((((....))))))", "kcal/mol", -36.8],
  ["GCTTCGCGAAAGCGCCGC ((..(((....)))..))", "kcal/mol", -12.2],
  ["GCATCCGAAAGGAATTGC ((((((....)))..)))", "kcal/mol", -20.2],
  ["GATCCAGGCCTGGATC ((((((....))))))", "kcal/mol", -54.9],
  ["GCTATCGAAAGATGCAGC ((((((....)))..)))", "kcal/mol", -18.3],
  ["GATGTAGGAAACTGCATC ((((.((....)).))))", "kcal/mol", -34.6],
  ["GCGCAGCGAAAGCATCGC (((..((....))..)))", "kcal/mol", -9.43],
  ["CGTCTCGGAAACGAACG (((.(((....))))))", "kcal/mol", -23.4],
  ["GCCGCCGAAAGGCTGGGC ((((((....)))..)))", "kcal/mol", -20.4],
  ["GCTACGCGAAAGCGCTGC ((..(((....)))..))", "kcal/mol", -15.2],
  ["CGCTAGCGGAAACGCGCG (((..(((....))))))", "kcal/mol", -25.3],
  ["GTTTGCCGAAAGGCCAAC (((.(((....))).)))", "kcal/mol", -20.9],
  ["GATGTACCGAAAGGTATC (((..(((....))))))", "kcal/mol", -14],
  ["GCAGGCGAAAGCCTCTGC ((((((....)))..)))", "kcal/mol", -12],
  ["GATTACCGAAAGGTCATC (((.(((....))).)))", "kcal/mol", -28.8],
  ["GATCAAAGCTTGATC ((((((...))))))", "kcal/mol", -28.1],
  ["GTGTTTGAAAAAACAC ((((((....))))))", "kcal/mol", -38.4],
  ["GGTTACGGAAACGTAGTC (..((((....))))..)", "kcal/mol", -12.7],
  ["GGTACCGAAAGGTGTACC ((((((....)))..)))", "kcal/mol", -22.5],
  ["CGTGCTCGGAAACGAACG (((..(((....))))))", "kcal/mol", -5.98],
  ["GCTGGGGGAAACCTCAGC ((((.((....)).))))", "kcal/mol", -44.8],
  ["GACTGGGGAAACCCAGTC (((((((....)))))))", "kcal/mol", -40.3],
  ["GTTCGGAAACGAAC (((((....)))))", "kcal/mol", -25.9],
  ["GGGGACGCGAAAGCGCCC (((..(((....))))))", "kcal/mol", -12.9],
  ["GTTTTCCCGAAAGGGAAC (((..(((....))))))", "kcal/mol", -10.7],
  ["GATCGTGCTAACGATC ((((((....))))))", "kcal/mol", -37.7],
  ["GCCAAGCGAAAGCTCAGC ((..(((....)))..))", "kcal/mol", -13.6],
  ["GATCGTTACGACGATC ((((((....))))))", "kcal/mol", -39.9],
  ["GGAATTCGAAAGAAATCC (((.(((....))).)))", "kcal/mol", -30.5],
  ["GCTCTAGCGAAAGCTAGC (((..(((....))))))", "kcal/mol", -5.88],
  ["GGGGATTCGAAAGAACCC (((..(((....))))))", "kcal/mol", -20.5]
]}

---

Assay Comment: melting temperature; fluorescence melt of hairpins on a sequencing array, two-state fit, raised by 9.35 °C to match UV melts
Conditions Used: sodium 0.088 M
# cutoff 50 °C applies to Tm; >= gives true, < gives false

{"columns": ["Residue Codes", "Class Name"],
 "data": [
  ["CGCACGGAAACGTAGGCG ((((((....)))..)))", "false"],
  ["GGAATCGGAAACAATTCC (((((.(....).)))))", "false"],
  ["GTAGTTCCGAAAGGATAC (((..(((....))))))", "false"],
  ["GAGACCACGAAAGTGCTC (((..(((....))))))", "false"],
  ["GCCCCGGGAAACCAGGGC ((((.((....)).))))", "true"],
  ["GAATGCGAAAGCACATTC ((((((....)))..)))", "false"]
]}

---

Assay Comment: folding enthalpy; higher = less favourable; fluorescence melt of hairpins on a sequencing array, two-state fit
Conditions Used: sodium 0.088 M
Values of folding enthalpy greater than or equal to -20 kcal/mol map to Condition met; values below map to Condition not met.

{"columns": ["Residue Codes", "Class Name"],
 "data": [
  ["CGGACCGGAAACGGCCCG (((.(((....))).)))", "Condition not met"],
  ["GTTTGACGAAAGTCGAAC (((.(((....))).)))", "Condition not met"],
  ["GATCTCTCAGAGATC ((((((...))))))", "Condition not met"],
  ["GTCCGCGAAAGCGTCGAC ((((((....)))..)))", "Condition met"],
  ["GAGTCCCGAAAGGGCTC (((.(((....))))))", "Condition not met"],
  ["GATCACTGCGTGATC ((((((...))))))", "Condition not met"],
  ["GACGGCGAAAGCCAGGTC ((((((....)))..)))", "Condition met"],
  ["GCGCACGAAAGTGCCGC ((((((....))).)))", "Condition met"],
  ["GACGTGGAAACACGTC ((((((....))))))", "Condition not met"]
]}

---

Listing of entries alongside the reported folding enthalpy.
Assay Comment: folding enthalpy; higher = less favourable; fluorescence melt of hairpins on a sequencing array, two-state fit
Conditions Used: sodium 0.088 M
Property Label: folding enthalpy (kcal/mol)

{"columns": ["Residue Codes", "Property Label", "Obs Value"],
 "data": [
  ["GCTAGTGGAAACACTAAC (.(((((....))))).)", "folding enthalpy", -15.2],
  ["GCAGAGGGAAACCCCTGC ((((.((....)).))))", "folding enthalpy", -33.7],
  ["GCAAAGCGAAAGCTCCGC ((..(((....)))..))", "folding enthalpy", -11.4],
  ["CGGGTACGGAAACGTCCG (((..(((....))))))", "folding enthalpy", -20],
  ["GCGGCATCGAAAGATCGC (((..(((....))))))", "folding enthalpy", -22.7],
  ["GACCACGAAAGTGGGTC ((((((....))).)))", "folding enthalpy", -13.7],
  ["GTGCAGTCGAAAGACCAC (((..(((....))))))", "folding enthalpy", -16.4],
  ["GCCTCGTCGAAAGACGGC (((..(((....))))))", "folding enthalpy", -8.04],
  ["GGGGTGTCGAAAGACCCC (((..(((....))))))", "folding enthalpy", -30.4],
  ["GGGATTGGAAACAATTCC ((.((((....)))).))", "folding enthalpy", -34],
  ["GTACGACCGAAAGGTTAC (((..(((....))))))", "folding enthalpy", -8.91],
  ["GCACGCGAAAGCGGATGC ((((((....)))..)))", "folding enthalpy", -15],
  ["GCTAACGGAAACATTAGC (((((.(....).)))))", "folding enthalpy", -23.1],
  ["GATCGAGCATCGATC ((((((...))))))", "folding enthalpy", -41.3],
  ["GTGAATGGAAACACTCAC ((((.((....)).))))", "folding enthalpy", -24.6],
  ["GATCGCCGAAAGGCATC (((.(((....))))))", "folding enthalpy", -9.53]
]}
